Provenance of the data: ChEMBL document CHEMBL1157539

Test system: Plasmodium falciparum
Assay: GSK_TCMDC: Inhibition of Plasmodium falciparum Dd2 in whole red blood cells, using parasite LDH activity as an index of growth. Test compounds present at 2uM
Format: functional
Criterion: Inhibition meeting or surpassing 70%. Met: True. Not met: False.

- Compound: "CCN(CC)S(=O)(=O)c1ccc(Cl)c(C(=O)Nc2ccc3nc(C)sc3c2)c1"
  Qualitative label: "True"
- Compound: "O=C(N[C@H]1CCCC[C@H]1C(=O)O)c1ccccc1"
  Qualitative label: "False"
- Compound: "Br.CCCCC(NCC)c1ccc(OCCOc2ccc(C(CCCC)NCC)cc2)cc1 (stereo not drawn)"
  Qualitative label: "True"
- Compound: "O=S(=O)(c1cccc(C(F)(F)F)c1)N1CCC(CO)(Cc2cccc(C(F)(F)F)c2)CC1"
  Qualitative label: "True"
- Compound: "CCOc1cc(C(=O)Nc2ccc3nc(N4CCCCC4)cc(C)c3c2)cc(OCC)c1OCC"
  Qualitative label: "False"
- Compound: "CCc1cccc(NC(=O)/C=C/c2ccc3c(c2)CN(C)CC3)c1"
  Qualitative label: "True"
- Compound: "CC(C)NCc1ccc(-c2cccc(NC(=O)c3ccc(Cl)cc3)c2)cc1.O=C(O)C(F)(F)F"
  Qualitative label: "True"
- Compound: "CCOc1ccc(/C=C/C(=O)Nc2cccc3c2CCN(C)C3)cc1.Cl"
  Qualitative label: "False"
- Compound: "Cl.OC(CNCCCCCCNCC(O)c1ccc(Cl)c(Cl)c1)c1ccc(Cl)c(Cl)c1 (stereo not drawn)"
  Qualitative label: "False"
- Compound: "COc1ccc(OCCCN2CCCCC2)cc1S(=O)(=O)c1ccc(OCc2ccc(C(F)(F)F)cc2)cc1.Cl"
  Qualitative label: "False"
- Compound: "CC(CN1CCN(C)CC1)C(=O)Nc1ccc(-c2cccc(-c3nc4cc(F)ccc4[nH]3)c2)cc1 (stereo not drawn)"
  Qualitative label: "True"
- Compound: "CC(C)NCc1ccc(-c2ccc(CN3CCCC(c4ccccc4)C3)cc2)c(C(=O)NC2Cc3ccccc3C2)c1.O=C(O)C(F)(F)F (stereo not drawn)"
  Qualitative label: "False"
- Compound: "O=C(NC1CCCCC1)N(Cc1ccccc1-c1ccc(CNCCc2ccccc2)cc1)C1CCN(Cc2ccccc2)CC1.O=C(O)C(F)(F)F"
  Qualitative label: "True"
- Compound: "O=C(c1cc2nc3c(c(C(F)(F)F)n2n1)CCc1ccccc1-3)N1CCN2CCCC2C1 (stereo not drawn)"
  Qualitative label: "False"
- Compound: "COc1ccc(Cl)cc1N1CCN(CCCNC(=O)c2ccc(-c3nc4cc5ccccc5cc4[nH]3)c(F)c2)CC1"
  Qualitative label: "False"
- Compound: "CCCN(CCC)C(=O)c1cc(C(=O)N[C@@H](Cc2ccccc2)[C@H](O)CNCc2cccc(OC)c2)cc(N2CCCCS2(=O)=O)c1"
  Qualitative label: "True"
- Compound: "Cl.N#Cc1ccc2c(c1)CCN(CCC1CCC(NC(=O)/C=C/c3cccc4cc[nH]c34)CC1)CC2 (stereo not drawn)"
  Qualitative label: "False"
